human ACC2 (Homo sapiens (Human), UniProt O00763) data, read-out IC50
Sequence (O00763 129-2458): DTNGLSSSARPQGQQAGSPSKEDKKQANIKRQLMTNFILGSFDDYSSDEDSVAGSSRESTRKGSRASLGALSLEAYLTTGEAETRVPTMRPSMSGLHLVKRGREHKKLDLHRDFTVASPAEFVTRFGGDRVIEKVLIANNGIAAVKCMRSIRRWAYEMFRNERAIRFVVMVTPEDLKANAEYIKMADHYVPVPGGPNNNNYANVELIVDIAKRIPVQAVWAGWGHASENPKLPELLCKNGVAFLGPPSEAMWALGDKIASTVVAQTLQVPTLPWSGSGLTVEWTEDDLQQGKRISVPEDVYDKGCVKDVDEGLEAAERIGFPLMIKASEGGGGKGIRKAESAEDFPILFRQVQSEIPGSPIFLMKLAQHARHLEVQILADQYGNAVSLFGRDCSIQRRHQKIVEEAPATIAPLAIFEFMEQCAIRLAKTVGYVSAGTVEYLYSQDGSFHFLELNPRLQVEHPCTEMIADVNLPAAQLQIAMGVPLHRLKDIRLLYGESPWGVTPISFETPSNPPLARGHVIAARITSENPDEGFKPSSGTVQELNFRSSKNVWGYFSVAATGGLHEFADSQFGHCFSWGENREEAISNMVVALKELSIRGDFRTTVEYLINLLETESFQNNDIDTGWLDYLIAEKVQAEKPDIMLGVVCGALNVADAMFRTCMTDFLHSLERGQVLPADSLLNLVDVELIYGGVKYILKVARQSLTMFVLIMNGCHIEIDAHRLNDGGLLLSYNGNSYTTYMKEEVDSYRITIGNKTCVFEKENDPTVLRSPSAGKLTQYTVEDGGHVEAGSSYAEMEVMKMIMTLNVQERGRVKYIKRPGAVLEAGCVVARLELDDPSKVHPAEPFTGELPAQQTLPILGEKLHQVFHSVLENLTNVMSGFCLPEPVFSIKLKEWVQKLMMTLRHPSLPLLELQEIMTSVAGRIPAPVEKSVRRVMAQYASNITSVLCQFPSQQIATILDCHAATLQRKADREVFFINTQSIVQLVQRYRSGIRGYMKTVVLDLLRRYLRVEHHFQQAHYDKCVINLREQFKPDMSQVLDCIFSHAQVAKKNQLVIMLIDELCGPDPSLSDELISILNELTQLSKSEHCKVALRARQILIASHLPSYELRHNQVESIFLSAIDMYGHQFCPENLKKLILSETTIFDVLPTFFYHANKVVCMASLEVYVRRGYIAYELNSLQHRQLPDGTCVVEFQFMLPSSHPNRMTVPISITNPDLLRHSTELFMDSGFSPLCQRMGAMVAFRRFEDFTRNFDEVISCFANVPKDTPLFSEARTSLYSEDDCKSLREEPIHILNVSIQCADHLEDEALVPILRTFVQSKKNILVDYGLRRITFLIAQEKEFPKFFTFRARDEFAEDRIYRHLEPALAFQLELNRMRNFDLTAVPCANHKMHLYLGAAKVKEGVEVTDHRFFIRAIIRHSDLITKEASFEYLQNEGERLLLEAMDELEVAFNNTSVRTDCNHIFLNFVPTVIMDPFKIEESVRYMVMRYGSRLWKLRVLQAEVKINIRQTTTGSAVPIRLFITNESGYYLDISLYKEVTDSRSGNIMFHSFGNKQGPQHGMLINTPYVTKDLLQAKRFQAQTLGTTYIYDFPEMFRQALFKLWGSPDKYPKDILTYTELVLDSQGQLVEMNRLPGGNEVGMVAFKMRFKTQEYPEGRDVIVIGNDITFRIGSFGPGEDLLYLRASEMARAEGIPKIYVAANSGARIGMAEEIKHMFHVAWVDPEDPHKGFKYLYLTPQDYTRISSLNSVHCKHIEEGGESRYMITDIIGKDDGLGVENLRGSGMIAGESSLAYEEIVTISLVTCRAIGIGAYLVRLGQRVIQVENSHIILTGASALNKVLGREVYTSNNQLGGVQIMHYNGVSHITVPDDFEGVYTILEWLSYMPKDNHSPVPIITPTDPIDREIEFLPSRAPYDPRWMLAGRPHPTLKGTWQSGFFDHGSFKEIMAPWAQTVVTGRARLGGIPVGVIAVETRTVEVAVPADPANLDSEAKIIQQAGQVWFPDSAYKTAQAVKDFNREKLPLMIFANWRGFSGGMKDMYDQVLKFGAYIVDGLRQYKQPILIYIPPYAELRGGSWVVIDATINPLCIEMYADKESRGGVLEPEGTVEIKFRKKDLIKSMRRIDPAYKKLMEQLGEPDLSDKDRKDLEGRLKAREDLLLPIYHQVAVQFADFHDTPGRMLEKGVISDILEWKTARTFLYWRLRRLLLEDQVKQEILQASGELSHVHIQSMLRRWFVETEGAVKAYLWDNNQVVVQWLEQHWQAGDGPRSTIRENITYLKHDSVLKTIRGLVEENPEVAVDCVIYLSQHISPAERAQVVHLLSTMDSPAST
Measure: IC50 (nM)

INSERT INTO measurements (compound, observed_result) VALUES
  ('CC(=O)Nc1cccc(C(=O)N[C@@H](C)c2ccc(C3CN(c4ccc(OCC5CC5)cc4)C3)cc2)c1', 2190),
  ('CCOc1cccc(N2CC(c3ccc([C@H](C)NC(C)=O)cc3)C2)c1', 680),
  ('CC(=O)N[C@@H](C)c1ccc(C2CN(c3ncc(C(F)(F)F)cn3)C2)cc1', 850),
  ('CC(=O)N[C@@H](C)c1ccc(C2CN(c3ccc(OCC4CC4)cc3)C2)cc1', 380),
  ('CC(Cc1ccc(C2CN(c3ccc(OCC4CC4)cc3)C2)cc1)NC(=O)C1(C)CC1 (centres unmarked)', 1220),
  ('CC(=O)Nc1cc(C(=O)N[C@@H](C)c2ccc(C3CN(c4ccc(OCC5CC5)cc4)C3)cc2)ccn1', 780),
  ('Cc1nocc1C(=O)N[C@@H](C)c1ccc(C2CN(c3ccc(OCC4CC4)cc3)C2)cc1', 470),
  ('Cc1nc(C(=O)N[C@@H](C)c2ccc(C3CN(c4ccc(OCC5CC5)cc4)C3)cc2)c(C)s1', 1410);
